Source: patent US8859818B2

Test: solubility in tetrahydrofuran
Assay type: physicochemical
Conditions: 25° C., weight dissolved completely in 1 g tetrahydrofuran
Parameter Solubility: see the listing below.
# value in g/g tetrahydrofuran; strip the unit string

{"chemical_smiles": "Cc1cccc(C=Cc2ccc(N(c3ccc(C=Cc4cccc(C)c4)cc3)c3ccc(C=Cc4cccc(C)c4)cc3)cc2)c1", "unit_of_measure": "g/g tetrahydrofuran", "quantitative_result": 0.40}
{"chemical_smiles": "Cc1ccccc1/C=C/c1ccc(N(c2ccc(/C=C/c3ccccc3C)cc2)c2ccc(/C=C/c3ccccc3C)cc2)cc1", "unit_of_measure": "g/g tetrahydrofuran", "quantitative_result": 0.02}

Exam item: May I ask what Solubility has been recorded for `COc1ccc(/C=C/c2ccc(N(c3ccc(/C=C/c4ccc(OC)cc4)cc3)c3ccc(/C=C/c4ccc(OC)cc4)cc3)cc2)cc1` ?
Marked response: 0.10

Exam item: May I ask what Solubility has been recorded for `Cc1ccc(/C=C/c2ccc(N(c3ccc(/C=C/c4ccc(C)cc4)cc3)c3ccc(/C=C/c4ccc(C)cc4)cc3)cc2)cc1` ?
Marked response: 0.08

Exam item: May I ask what Solubility has been recorded for `COc1cccc(C=Cc2ccc(N(c3ccc(C=Cc4cccc(OC)c4)cc3)c3ccc(C=Cc4cccc(OC)c4)cc3)cc2)c1` ?
Marked response: 0.45
